molecular target: T1, SARS-CoV-2 spike receptor-binding domain (RBD) (SARS-CoV-2, Wuhan-Hu-1, UniProt P0DTC2); assay: SPR; array SPR (Carterra LSA), HC200M chip; IgG captured on immobilised anti-human Fc; antigen as analyte in a 7-point series, RBD 300 nM to 411 pM or trimer 100 nM to 137 pM, in 1x HBSTE with 0.5 mg/mL BSA; association 5 min, dissociation 11 min; one-site model; constants for the trimer are called avidities; conditions: both partners purified
T1 construct: also called SARS-CoV-2 RBD
Readout label: binding result

binder="selected anti-SARS-CoV-2 spike antibody C1 (antibody, V domains shown) VH: EVQLVQSGAEVKKPGASVKVSCKVSGYSFTDHSIHWVRQAPGKGLEWMGGISTQRGDTIYAQKFQGRVTMTEDTSTDTAYMELSSLKSEDTAVYYCARDGYYGSGTYYYYGMDVWGQGTTVTVSS VL: DIQMTQSPSSVSASVGDRVTITCRASQSIGSFLAWYQQKPGKAPKLLIYGESNRATGVPSRFSGSGSGTDFTLTISSLQPEDFANYYCQQYNRYPWAFGGGTKVEIK" readout_label="binding result" assay_result=binds
binder="selected anti-SARS-CoV-2 spike antibody B3 (antibody, V domains shown) VH: EVQLVQSGAEVKKPGASVKVSCKVSGYTSPATIHWVRQAPGKGLEWMGGISPYKGDTIYAQKFQGRVTMTEDTSTDTAYMELSSLKSEDTAVYYCAKDSYYYDSSGSGLGGGFDYWGQGTLVTVSS VL: DIQMTQSPSSVSASVGDRVTITCRASQDIGNHLAWYQQKPGKAPKLLIYASSNLASGVPSRFSGSGSGTDFTLTISSLQPEDFANYYCHQYATYPWTFGGGTKVEIK" readout_label="binding result" assay_result=binds
binder="selected anti-SARS-CoV-2 spike antibody G4 (antibody, V domains shown) VH: QVQLVQSGAEVKKPGASVKVSCKVSGYTLSDHAIHWVRQAPGKGLEWMGGINPYTGDTIYAQKFQGRVTMTEDTSTDTAYMELSSLKSEDTAVYYCARDGYDFWSGSYGMDVWGQGTTVTVSS VL: DIQMTQSPSSVSASVGDRVTITCRASQDIGNHLAWYQQKPGKAPKLLIYASSNLASGVPSRFSGSGSGTDFTLTISSLQPEDFANYYCHQYATYPWTFGGGTKVEIK" readout_label="binding result" assay_result=binds

The reported numbers originate from paper PMC8786865.
